# target-or-test-system: F protein of wild type RSV A/Long (respiratory syncytial virus strain …, UniProt P12568 26-574)
# Sequence (P12568 26-574): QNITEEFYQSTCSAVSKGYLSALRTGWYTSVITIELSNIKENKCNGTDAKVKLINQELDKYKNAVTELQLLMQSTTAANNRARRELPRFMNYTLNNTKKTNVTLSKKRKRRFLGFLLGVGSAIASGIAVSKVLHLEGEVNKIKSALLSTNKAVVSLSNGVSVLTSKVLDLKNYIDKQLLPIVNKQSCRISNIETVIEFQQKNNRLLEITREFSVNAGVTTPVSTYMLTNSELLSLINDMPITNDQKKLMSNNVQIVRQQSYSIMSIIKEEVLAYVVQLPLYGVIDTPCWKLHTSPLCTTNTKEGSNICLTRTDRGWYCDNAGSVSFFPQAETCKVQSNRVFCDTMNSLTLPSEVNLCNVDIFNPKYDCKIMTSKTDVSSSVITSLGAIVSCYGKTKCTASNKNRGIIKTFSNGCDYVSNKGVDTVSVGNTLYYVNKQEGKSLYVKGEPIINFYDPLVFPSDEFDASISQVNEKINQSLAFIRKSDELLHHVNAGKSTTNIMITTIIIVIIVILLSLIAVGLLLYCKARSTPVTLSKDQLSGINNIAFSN
# experiment-summary: cell-based or functional assay
Entries annotated with measured Fold Difference (Curve IC50)
Provide the reading as a plain figure in fold.

binder | Fold Difference (Curve IC50) / fold
A4B4 (monoclonal antibody) (antibody, V domains shown, mAb; also called A4B4/A4B4 (HC/LC)) VH: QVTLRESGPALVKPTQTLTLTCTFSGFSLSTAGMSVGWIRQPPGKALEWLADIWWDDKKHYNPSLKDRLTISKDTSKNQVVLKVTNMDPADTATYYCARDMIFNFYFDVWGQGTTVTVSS VL: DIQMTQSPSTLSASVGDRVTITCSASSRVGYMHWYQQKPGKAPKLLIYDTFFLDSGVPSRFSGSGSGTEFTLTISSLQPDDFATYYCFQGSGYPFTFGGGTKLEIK | 27

Now let's try a different one.
Which measured Fold Difference (Curve IC50) value corresponds to A12a6 (Fab fragment) (Fab, V domains shown, Fab) VH: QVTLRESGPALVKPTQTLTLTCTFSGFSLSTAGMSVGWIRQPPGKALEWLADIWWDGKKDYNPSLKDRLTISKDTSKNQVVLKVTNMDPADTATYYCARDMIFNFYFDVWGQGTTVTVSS VL: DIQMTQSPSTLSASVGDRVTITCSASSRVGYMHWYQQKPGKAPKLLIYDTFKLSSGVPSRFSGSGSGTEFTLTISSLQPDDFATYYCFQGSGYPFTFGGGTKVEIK ?
16
